Ref: paper PMC5615050

molecular target: Bac-NA^H274Y H1N1 (Influenza A virus, UniProt P03470, H259Y); experiment: biochemical
outcomeMeasure: IC50

CC12CCC(O)CC1CCC1C2CC(O)C2(C)C(C3=CC(=O)OC3)CCC12O (stereo not drawn) [BPR1P0007S0] ... > 40 µM

Provide IC50 for all items below, preserving their order.
1. CC1OC(OC2CC(O)C3(CO)C4C(O)CC5(C)C(C6COC(O)C6)CCC5(O)C4CCC3(O)C2)C(O)C(O)C1O (stereo not drawn) [BPR1P0003S0]
2. CC12CCC(O)CC1CCC1C2CCC2(C)C(C3=CC(=O)OC3)CCC12O (stereo not drawn) [BPR1P0008S0]

## Output
> 40 µM
> 40 µM
